Molecular target: T1, BARELY ANY MERISTEM 1 (BAM1) ectodomain (Arabidopsis thaliana, UniProt O49545 20-637)
T1 chain: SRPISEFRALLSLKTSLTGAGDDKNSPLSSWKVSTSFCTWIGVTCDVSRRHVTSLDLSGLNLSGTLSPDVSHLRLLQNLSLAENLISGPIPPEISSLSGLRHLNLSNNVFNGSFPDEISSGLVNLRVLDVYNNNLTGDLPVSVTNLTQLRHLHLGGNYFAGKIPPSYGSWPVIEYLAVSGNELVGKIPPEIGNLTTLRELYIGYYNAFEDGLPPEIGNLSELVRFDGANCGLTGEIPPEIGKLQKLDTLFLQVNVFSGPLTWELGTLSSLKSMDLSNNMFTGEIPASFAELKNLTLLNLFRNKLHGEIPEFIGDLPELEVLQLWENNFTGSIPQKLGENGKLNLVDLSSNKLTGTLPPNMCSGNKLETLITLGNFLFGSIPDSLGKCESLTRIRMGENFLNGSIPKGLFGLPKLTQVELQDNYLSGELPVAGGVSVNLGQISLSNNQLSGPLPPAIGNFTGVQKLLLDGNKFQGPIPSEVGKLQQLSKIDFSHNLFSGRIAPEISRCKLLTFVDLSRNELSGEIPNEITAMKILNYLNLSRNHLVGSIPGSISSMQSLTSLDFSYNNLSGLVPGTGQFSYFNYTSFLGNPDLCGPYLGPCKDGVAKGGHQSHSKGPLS
Experiment: ITC
Where no end group is shown, it is not given here. [ ]: non-standard residue; d: D form. Hyp = O=C(O)[C@@H]1C[C@@H](O)CN1
ASSAY METRIC: Kd
Include the unit right after the number.

Q. Could you share which Kd value was measured for RLV[Hyp]SG[Hyp]NPLHN (CLE9 peptide of Arabidopsis thaliana, 12 residues; source: synthetic peptide (PSL GmbH)) [CLE9 peptide] ?
A. 12.7 nM
